Test system: Rattus norvegicus
Assay: The compound was evaluated for the anticonflict behavior in male wistar rats as rate of responses (conflict) following dose of 10 mg/kg po
Assay type: functional
Set-up: unit: responses/min
Metric name: Activity
Output: the number by itself.

Entry CN1CCN(C2=Nc3cc(Cl)ccc3Nc3nn(C)cc32)CC1 , Rattus norvegicus data, Activity value: 8.1

For the compound CN1CCN(C2=Nc3cc(F)ccc3Nc3nn(C)cc32)CC1 , the measured Activity on Rattus norvegicus was 9.6

Value sought: Activity, system Rattus norvegicus, item CNC1=Nc2ccc(Cl)cc2C(c2ccccc2)=[N+]([O-])C1 [CHLORDIAZEPOXIDE] . Result: 4.2

The value of Activity recorded for CN1CCN(C2=Nc3cc(Br)ccc3Nc3nn(C)cc32)CC1 when tested on Rattus norvegicus reads 5

====

Tested on: Rattus norvegicus
Assay: Compound administered perorally was evaluated for the conditioned avoidance response in rats
Type: functional
Record form. Attribute: ED. Fill in for each entry.

Given item Cn1cc2c(n1)Nc1ccc(Cl)cc1N=C2N , the value recorded as its ED is >25 mg/kg

Entry under test: CCn1cc2c(n1)Nc1cc(Cl)c(Cl)cc1N=C2N1CCN(C)CC1 . Its ED was >20 mg/kg

Noted for CN1CCN(C2=Nc3cc(Cl)c(Cl)cc3Nc3nn(C)cc32)CC1 : its ED reads >20 mg/kg

// sample CN1CCN(C2=Nc3cc(Br)ccc3Nc3nn(C)cc32)CC1 , its ED was >5 mg/kg

// recorded ED for CN1CCN(C2=Nc3cc(F)c(F)cc3Nc3nn(C)cc32)CC1 : 50 mg/kg

// CN1CCN(C2=Nc3ccc(Cl)cc3Nc3nn(C)cc32)CC1 : ED value = >50 mg/kg

====

Can you tell me IC50 for the items I'm about to list?
Molecular target: UniProtKB P20288
Assay: Inhibition of [3H]spiperone binding to Dopamine receptor D2 from calf caudate
Quick note: give the figure in nM, leave out the unit.

Record CN1CCN(C2=Nc3cc(C(F)(F)F)ccc3Nc3nn(C)cc32)CC1 , field IC50: 1600

Measured IC50 of CCCCCCCCCCn1cc2c(n1)Nc1ccc(Cl)cc1N=C2N1CCN(C)CC1 : 2500

====

System: Rattus norvegicus
Assay: The compound was evaluated for the anticonflict behavior in male wistar rats as rate of responses (conflict) following dose of 5.0 mg/kg po
Type: functional
Parameters: unit: responses/min
Kindly supply the reported Activity values for the records listed here.

Activity measured on CN1CCN(C2=Nc3cc(F)ccc3Nc3nn(C)cc32)CC1 = 3.9

// Activity lookup, molecule = CN1CCN(C2=Nc3cc(Br)ccc3Nc3nn(C)cc32)CC1 , result: 2.6

Activity reading for CN1CCN(C2=Nc3cc(Cl)ccc3Nc3nn(C)cc32)CC1 : 6

Consider CNC1=Nc2ccc(Cl)cc2C(c2ccccc2)=[N+]([O-])C1 [CHLORDIAZEPOXIDE] . Its measured Activity is 1.9

====

Consider the following compounds; for each one, report its Activity.
System: Rattus norvegicus
Test: The compound was evaluated for the anticonflict behavior in male wistar rats as rate of responses (reward) following dose of 20 mg/kg po
Assay type: functional
Design: unit: responses/min
Enter a number only.

For this compound ( CN1CCN(C2=Nc3cc(Cl)ccc3Nc3nn(C)cc32)CC1 ), measured Activity is 5.4

Activity for CN1CCN(C2=Nc3cc(F)ccc3Nc3nn(C)cc32)CC1 is 45.9

compound CN1CCN(C2=Nc3cc(Br)ccc3Nc3nn(C)cc32)CC1 , Activity observed: 14.1

Measured Activity, CNC1=Nc2ccc(Cl)cc2C(c2ccccc2)=[N+]([O-])C1 [CHLORDIAZEPOXIDE] : 54.3

Values from ChEMBL document CHEMBL1124378
